system: P. aeruginosa ATCC 15442; assay: HMARQ biocidal kill activity; type: cell-based; details: P. aeruginosa ATCC 15442 (gram−), 15 min
Where no end group is shown, it is not given here.
Recorded ppm needed for 3.5 log kill at 15 min values for a group of substances are listed next.

Here's what some known entries look like.
{"columns": ["substance", "ppm needed for 3.5 log kill at 15 min"],
 "data": [
  ["KFKKFKKFKKFKKFKKFKKFK [KFK (7), KFK KFK KFK KFK KFK KFK KFK]", ">500 ppm"],
  ["H-FAKKFAKKFAKKFAKKFAKKFAKK-OH [FAKK (6), FAKK FAKK FAKK FAKK FAKK FAKK]", ">500 ppm"]
]}

Okay, next one:
Fill in: ppm needed for 3.5 log kill at 15 min of FKA FKA (FKAFKA; Periodic Peptide) [FKA(2)] is ___ >500 ppm

###

system: S. aureus (methicillin resistant) ATCC 33591; settings: ATCC 33591
Where no end group is shown, it is not given here.
recorded.metric: MIC

Here's what some known entries look like.
{"columns": ["substance", "MIC"],
 "data": [
  ["H-FKAFKAFKAFKAFKAFKAFKAFKAFKA-OH [FKA (9), FKA FKA FKA FKA FKA FKA FKA FKA FKA]", "31 to 62 µg/mL"],
  ["KAAKKAAKKAAKKAAKKAAKKAAKKAAK [KAAK (7), KAAK KAAK KAAK KAAK KAAK KAAK KAAK]", ">500 µg/mL"],
  ["KFAFKFAFKFAFKFAFKFAFKFAFKFAF [KFAF (7), KFAF KFAF KFAF KFAF KFAF KFAF KFAF]", ">500 µg/mL"],
  ["H-LKKLLKKLLKKLLKKLLKKLLKKLLKKL-OH [LKKL (7), LKKL LKKL LKKL LKKL LKKL LKKL LKKL]", ">250 µg/mL"]
]}

Fill in: MIC of H-FAKKFAKKFAKKFAKKFAKKFAKK-OH [FAKK (6), FAKK FAKK FAKK FAKK FAKK FAKK] is ___ >250 µg/mL

Fill in: MIC of H-FKAFKAFKAFKAFKAFKAFKAFKA-OH [FKA (8), FKA FKA FKA FKA FKA FKA FKA FKA] is ___ >500 µg/mL

Fill in: MIC of H-KFKKFKKFKKFKKFKKFKKFKKFK-OH [KFK (8), KEK KFK KFK KFK KFK KFK KFK KFK] is ___ >250 µg/mL

###

Recorded MIC values for a group of substances are listed next.
system: S. aureus (methicillin resistant) ATCC 33591; settings: ATCC 33591
Where no end group is shown, it is not given here.

Here's what some known entries look like.
{"columns": ["substance", "MIC"],
 "data": [
  ["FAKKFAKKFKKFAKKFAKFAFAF [D2A21, reference compound]", "62 to 125 µg/mL"],
  ["LKLKLKLKLKLKLKLKLK [LK (9), LK LK LK LK LK LK LK LK LK]", "250 to 500 µg/mL"],
  ["H-LKLKLKLKLKLKLKLKLKLKLK-OH [LK (11), LK LK LK LK LK LK LK LK LK LK LK]", ">250 µg/mL"],
  ["LKLKLKLKLKLKLKLKLKLK [LK (10), LK LK LK LK LK LK LK LK LK LK]", "125 to 250 µg/mL"],
  ["KFKKFKKFKKFKKFKKFKKFK [KFK (7), KFK KFK KFK KFK KFK KFK KFK]", ">500 µg/mL"],
  ["H-KFAKKFAKKFAKKFAKKFAKKFAKKFAKKFAK-OH [KFAK (8), KFAK KFAK KFAK KFAK KFAK KFAK KFAK KFAK]", "125 to 250 µg/mL"],
  ["FKAFKAFKAFKAFKAFKAFKA [FKA (7), FKA FKA FKA FKA FKA FKA FKA]", ">500 µg/mL"],
  ["H-KKFAKKFAKKFAKKFAKKFAKKFA-OH [KKFA (6), KKFA KKFA KKFA KKFA KKFA KKFA]", ">250 µg/mL"],
  ["AKKFAKKFAKKFAKKFAKKFAKKF [AKKF (6), AKKF AKKF AKKF AKKF AKKF AKKF]", "125 to 250 µg/mL"],
  ["KFKKFKKFKKFKKFKKFK [KFK (6), KFK KFK KFK KFK KFK KFK]", ">500 µg/mL"]
]}

Fill in: MIC of KFAKKFAKKFAKKFAKKFAKKFAKKFAK [KFAK (7), KFAK KFAK KFAK KFAK KFAK KFAK KFAK] is ___ >250 µg/mL

Fill in: MIC of H-FKAFKAFKAFKAFKAFKAFKAFKAFKAFKA-OH [FKA (10), FKA FKA FKA FKA FKA FKA FKA FKA FKA FKA] is ___ 31 to 62 µg/mL

Fill in: MIC of FKLRAKIKVRLRAKIKL [D4E1, FKLRAKIKVRLRAKIKL, reference compound] is ___ 32 to 62 µg/mL

Fill in: MIC of RFARRFARRFARRFARRFARRFARRFAR [RFAR (7), RFAR RFAR RFAR RFAR RFAR RFAR RFAR] is ___ 125 to 250 µg/mL

Fill in: MIC of LRLRLRLRLRLRLRLRLRLRLR [LR (11), LR LR LR LR LR LR LR LR LR LR LR] is ___ 125 to 250 µg/mL

Fill in: MIC of LKKLLKKLLKKLLKKLLKKLLKKL [LKKL (6), LKKL LKKL LKKL LKKL LKKL LKKL] is ___ >250 µg/mL

Fill in: MIC of H-KFKKFKKFKKFKKFKKFKKFKKFKKFKKFK-OH [KFK (10), KFK KFK KFK KFK KFK KFK KEK KFK KFK KFK] is ___ >250 µg/mL

The reported numbers originate from patent US7091185B2.
